- Tested on: HeLa Kyoto;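 further: synchronized HeLa Kyoto cells, proteins quantified by TMT10plex mass spectrometry, three biological replicates, mitosis taken 0.5 h after nocodazole release, G1/S directly after double thymidine block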
- assay.remarks: thermal stability score vs G1/S (z-score of summed log2 fold changes over temperatures); higher = more thermally stable than in G1/S
- test.context: cell cycle stage: early G1 (4.5 h after nocodazole release)
measured.metric: thermal stability score
Kindly provide the number alone.

Form field: thermal stability score recorded for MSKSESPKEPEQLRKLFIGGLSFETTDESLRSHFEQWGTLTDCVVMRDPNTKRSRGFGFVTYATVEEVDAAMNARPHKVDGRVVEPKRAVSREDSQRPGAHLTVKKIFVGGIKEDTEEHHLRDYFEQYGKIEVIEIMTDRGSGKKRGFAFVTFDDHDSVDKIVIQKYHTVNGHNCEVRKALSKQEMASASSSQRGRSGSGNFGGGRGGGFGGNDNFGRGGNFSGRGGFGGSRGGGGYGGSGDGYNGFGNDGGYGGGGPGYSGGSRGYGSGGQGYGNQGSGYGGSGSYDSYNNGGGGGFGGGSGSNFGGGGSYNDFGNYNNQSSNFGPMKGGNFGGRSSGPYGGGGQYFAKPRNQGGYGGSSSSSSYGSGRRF [HNRNPA1] with HeLa Kyoto (enter value)
-0.92

Form field: thermal stability score recorded for MAAKVFESIGKFGLALAVAGGVVNSALYNVDAGHRAVIFDRFRGVQDIVVGEGTHFLIPWVQKPIIFDCRSRPRNVPVITGSKDLQNVNITLRILFRPVASQLPRIFTSIGEDYDERVLPSITTEILKSVVARFDAGELITQRELVSRQVSDDLTERAATFGLILDDVSLTHLTFGKEFTEAVEAKQVAQQEAERARFVVEKAEQQKKAAIISAEGDSKAAELIANSLATAGDGLIELRKLEAAEDIAYQLSRSRNITYLPAGQSVLLQLPQ [PHB] with HeLa Kyoto (enter value)
-1.45

Source of measurements: the supplement of paper PMC5998384
